- System: Plasmodium berghei
- procedure-details: Screen against P. berghei liver stage (PbLuc), transformed with Luciferase, at 10uM
- Assay type: functional, HepG2
- test-conditions: tested at 10 uM
Screen size: about 69,000 compounds; about 8,600 (12%) showed an effect of 50% or more. For the sample, strong results were picked, then their nearest neighbours and some compounds at random.
# INHIBITION values compiled below
measured-quantity: INHIBITION (%)

INSERT INTO measurements (compound, measured_on, value) VALUES
  ('Cc1cc(C(=O)N2CC(O)CO2)c2ccc(C)c(C)c2n1 (stereo unspecified)', 'Plasmodium berghei', 15),
  ('COc1cc(F)ccc1NC(=O)NCCNC(=O)OC(C)(C)C', 'Plasmodium berghei', 19.1),
  ('CC(C)(C)c1n[nH]c(C2CN(C(=O)c3csnn3)CCO2)n1 (stereo unspecified)', 'Plasmodium berghei', 11.1),
  ('CC(=O)N1CCOC(c2c(C(=O)NC(C)(C)C)sc3ccccc23)C1 (stereo unspecified)', 'Plasmodium berghei', -84.7),
  ('CCOC(=O)CCCNC(=O)CN1CCN(c2ncccn2)CC1', 'Plasmodium berghei', 1.81),
  ('CC(=O)c1cc(CC(=O)NCc2ccc(F)cc2)cs1', 'Plasmodium berghei', -38.2),
  ('CCCn1nccc1NC(=O)CN1CCCC1c1c(C)nn(C)c1C (stereo unspecified)', 'Plasmodium berghei', 34.1),
  ('COc1ccc(CNC(=O)Cc2csc(C(C)=O)c2)cc1', 'Plasmodium berghei', 33),
  ('Cc1ccc(CN2CCOC3(COCCN(S(C)(=O)=O)C3)C2)o1 (stereo unspecified)', 'Plasmodium berghei', 15.4),
  ('O=C(NCc1cc[nH]n1)N1CCN(c2ncccn2)CC1', 'Plasmodium berghei', 33.3),
  ('COCCN1CC[C@@H]2O[C@@H](COCC(=O)N3CCCC3)CC[C@@H]21', 'Plasmodium berghei', -23.2);

---

- Test system: Plasmodium berghei
- procedure-details: Screen against P. berghei liver stage (PbLuc), transformed with Luciferase, at 10uM
- Assay type: functional, HepG2
- test-conditions: tested at 10 uM
The whole screen tested about 69,000 compounds, of which about 8,600 (12%) showed an effect of 50% or more. The sample as a whole holds a higher share of strong results than the screen did.
Lab note: compare INHIBITION with 20%, writing 1 if less and -1 if equal or more.

INSERT INTO results (compound, assigned_class) VALUES
  ('CC(C)n1nc2c(cc1=O)CN(c1ncnc3ccccc13)CC2', -1),
  ('Cc1ccccc1-n1cc(-c2ccnc(N[C@@H](CO)C(C)C)n2)cn1', 1),
  ('Cc1ccccc1-n1cc(-c2ccnc(N3CCCC(O)C3)n2)cn1 (stereo unspecified)', 1),
  ('CCn1nc2c(cc1=O)CN(c1ncnc3ccsc13)CC2', -1),
  ('CCn1nc2c(cc1=O)CN(CC(=O)Nc1nccs1)CC2', 1),
  ('COc1cccc(-n2cc(-c3ccnc(NC(CO)C(C)C)n3)cn2)c1 (stereo unspecified)', 1),
  ('COc1cccc(-n2cc(-c3ccnc(N[C@@H](CO)C(C)C)n3)cn2)c1', 1),
  ('COc1cccc(-n2cc(-c3ccnc(N[C@H](CO)C(C)C)n3)cn2)c1', 1),
  ('CC(=O)N1CCN([C@@H]2CC[C@@H](N(C)C(=O)C3CCCCC3)[C@H]2O)CC1', -1),
  ('COC[C@H]1CCCN1c1nccc(-c2cnn(-c3ccccc3C)c2)n1', -1),
  ('Cn1nc2c(cc1=O)CN(c1ncnc3ccsc13)CC2', -1);

---

- Test system: Plasmodium berghei
- procedure-details: Screen against P. berghei liver stage (PbLuc), transformed with Luciferase, at 10uM
- Format: functional, HepG2
- test-conditions: tested at 10 uM
Hit rate of the full screen: of about 69,000 compounds, about 8,600 (12%) showed an effect of 50% or more. The sample holds strong results, similar compounds and a random draw of the others, so the mix is not that of the screen.
# INHIBITION values compiled below
measured-quantity: INHIBITION (%)

INSERT INTO results (compound, value) VALUES
  ('CSCCNC(=O)C1CCC(=O)N(C2CCCC2)C1 (centres undefined)', 17.9),
  ('Cc1cc(NCCSc2nccn2C)n2nc(C)c(C)c2n1', 24.7),
  ('COc1cccc(OCCCc2cc(C#N)ccn2)c1', 55.6),
  ('O=C1CC(C2CCCCC2)c2c(n(C3CCCC3)[nH]c2=O)N1 (centres undefined)', 43.4),
  ('Cn1cc(C2SCC(=O)Nc3c2c(=O)[nH]n3C2CCOCC2)cn1 (centres undefined)', -70.7),
  ('O=C1CSC(c2ccc(O)cc2)c2c(n(C3CCOCC3)[nH]c2=O)N1 (centres undefined)', 60.1),
  ('Cc1ccc2c(c1)c(CNC(=O)C1CC(=O)N(C3CCCC3)C1)nn2C (centres undefined)', 38.5),
  ('NC(=O)C(CNC(=O)COCC(F)(F)F)Cc1ccc(F)cc1 (centres undefined)', 17.4),
  ('O=C1CC(c2ccccc2F)c2c(n(C3CCCC3)[nH]c2=O)N1 (centres undefined)', 68.5),
  ('Cc1csc(N2CCN(Cc3nccn3C)CC2C)n1 (centres undefined)', 30),
  ('Cc1ccnc(NCc2cn3c(C)csc3n2)n1', -125),
  ('Cc1ccc(CN[C@@H]2COC[C@H]2c2ccc(F)cc2)cc1C', 49),
  ('CC(C)Cc1cc(NC(=O)c2ccc3[nH]nnc3c2)n(C)n1', 1.45),
  ('COc1cc(NCc2ncc[nH]2)ccc1Br', 74.4),
  ('Cc1n[nH]c2c1C(c1ccsc1)SCC(=O)N2 (centres undefined)', 19.7),
  ('Fc1cccc(NCc2ncc[nH]2)c1', 10.3),
  ('O=C(NCCn1cccc1)C1CCC(=O)N(C2CCCC2)C1 (centres undefined)', 41.2),
  ('COc1ccccc1C1CC(=O)Nc2c1c(=O)[nH]n2C1CCCC1 (centres undefined)', 11.7),
  ('O=C(NCc1nncn1C1CC1)c1ccccc1Oc1cccnc1', -18.3),
  ('CCN1CC(CN(C)Cc2nc(-c3ccoc3)oc2C)CC1=O (centres undefined)', 39.6),
  ('c1ccc(NCCn2cc(C3CCCNC3)nn2)cc1 (centres undefined)', 56.6),
  ('Cc1csc(N2CCN(Cc3cnc(C)s3)CC2C)n1 (centres undefined)', 21.6),
  ('Cc1ccnc(SCC(=O)Nc2csc3nc(=O)c(C)nn23)n1', 72.8),
  ('CC(C)c1cc(C(=O)N2CCC3(CCc4ccccc4C(=O)N3)C2)on1 (centres undefined)', 22.45),
  ('CCOc1ccc(C2SCC(=O)Nc3c2c(=O)[nH]n3C(CC)CC)cc1 (centres undefined)', -19.7),
  ('Cc1nn2c(NC(=O)CSc3nccn3C)csc2nc1=O', 50.8),
  ('CCc1nnc(NC(=O)c2ccc(C3CCCN3CC(C)C)s2)s1 (centres undefined)', 15.9),
  ('CCc1noc(CC)c1CNC(=O)Nc1ccc2[nH]nnc2c1', 27.2),
  ('CC(=O)c1cnc(NCCN2CCCC2)nc1C', 33.1),
  ('O=C(NCCN1CCCCC1=O)C1CCC(=O)N(C2CCCC2)C1 (centres undefined)', 55.6),
  ('CSc1ccc(C2SCC(=O)Nc3c2c(=O)[nH]n3C2CCOCC2)cc1 (centres undefined)', 52.1),
  ('CN(C)CC(=O)N1CCO[C@@H]2CC(COCc3ccncc3)C[C@H]21 (some centres undefined)', 11.3),
  ('CN(C)c1cccc(C(=O)N2CCn3c(nnc3C3CC3)C2)c1', 25.4),
  ('CC(C)CN1CCCC1c1ccc(C(=O)Nc2cccnc2)s1 (centres undefined)', 89.6),
  ('COc1ccccc1OCCCc1cc(C#N)ccn1', 45.7),
  ('c1cc2c(cc1Cn1cc(C3CCCNC3)nn1)CCCO2 (centres undefined)', 16.7),
  ('Cc1ccc2c(c1)c(CNC(=O)C1CC(=O)N(C3CC3)C1)nn2C (centres undefined)', -6.34),
  ('COCc1nc2cc(NCc3ncc[nH]3)ccc2o1', -10.8),
  ('Cc1cnc(CN2CCN(c3nc(C)cs3)C(C)C2)cn1 (centres undefined)', 78.8),
  ('O=C(NCC1OCCc2cn(CC3CCOCC3)nc21)c1ccncc1 (centres undefined)', 32.2),
  ('Cc1nnc(SCC(=O)Nc2csc3nc(=O)c(C)nn23)s1', 36.3),
  ('Cc1ccc2c(c1)c(CNC(=O)C1CC(=O)N(CCN(C)C)C1)nn2C (centres undefined)', 82.4),
  ('COc1ccccc1OCCNCc1c(C(C)C)nn(C)c1N(C)C', 31.3),
  ('CC(C)CN1CCCC1c1ccc(C(=O)Nc2cc[nH]n2)s1 (centres undefined)', 22.3),
  ('O=S(=O)(NCCn1cc(C2CCCNC2)nn1)c1ccc(Cl)cc1 (centres undefined)', 35.4),
  ('Cc1csc(N2CCN(Cc3ccccn3)CC2C)n1 (centres undefined)', 2.3),
  ('Cc1cnc(NC(=O)c2ccc(C3CCCN3CC(C)C)s2)s1 (centres undefined)', 64),
  ('Fc1ccc(NCc2ncc[nH]2)cc1Br', 58.1),
  ('CCCN1CCCC1c1ccc(C(=O)N2CCOCC2)s1 (centres undefined)', 42.1);
